# key: entry, value: MFI at 33.3 nM
- experimentalTarget: T1, human CTLA4 on CHO cells (human, UniProt P16410 36-223)
- T1 construct: whole, on cells; CHO cells stably expressing CTLA4; also called huCTLA4
- T1 sequence (P16410 36-223): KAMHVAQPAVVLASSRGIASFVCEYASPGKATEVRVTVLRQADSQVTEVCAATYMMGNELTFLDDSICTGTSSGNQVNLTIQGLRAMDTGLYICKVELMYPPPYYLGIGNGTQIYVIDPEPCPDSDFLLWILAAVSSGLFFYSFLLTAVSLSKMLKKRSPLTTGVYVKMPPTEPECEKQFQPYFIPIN
- assayText: flow cytometry, CHO cells stably expressing CTLA4
measurementKind: MFI at 33.3 nM (MFI)

>>> reportedresult("variant CD80 IgV-Fc E35D/M47L/A71G (Fc fusion, not shown: a dimerising Fc or GST) VIHVTKEVKEVATLSCGHNVSVEELAQTRIYWQKDKKMVLTMMSGDLNIWPEYKNRTIFDITNNLSIVILGLRPSDEGTYECVVLKYEKDAFKREHLAEVTLSVKAD")
20600
>>> reportedresult("variant CD80 IgV-Fc E35D/D46E (Fc fusion, not shown: a dimerising Fc or GST) VIHVTKEVKEVATLSCGHNVSVEELAQTRIYWQKDKKMVLTMMSGEMNIWPEYKNRTIFDITNNLSIVILALRPSDEGTYECVVLKYEKDAFKREHLAEVTLSVKAD")
27900
